Source: the NTF2 design screens of Basanta et al. (2020)

Experiment: protease stability score; higher = more stable; yeast display proteolysis, trypsin and chymotrypsin;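 note: log10 excess protease needed over predicted unfolded state with 0 meaning unfolded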
Could you please report measured protease stability score for the items listed next?
Numbers only.

{"Sequence Data": "DEDLQKQAERFLHAVNTGNEEQIHRLVDKDARMQYGDRRVHGRERIATWYRQMKEEIRQDIEVRTVRVRNGRVEVDARVERHVNGRPIDNKFHMSIQIENGKVKSITAHLDPNVLQEIKR", "protease stability score": 1.17}
{"Sequence Data": "DEDVKKLFEDWLRALQTNNPDEVNEMADPNVTVKVGNKVVHGREQLNKDLKEETKHIRVTYHHVDLTVHNGRAKARLDVTVNVNGRPVRFQFNVTVHARNGRVVSMHVQIPHEVLETIKQ", "protease stability score": 1.57}
{"Sequence Data": "DEELAHKIAKLMETNNFQDMAKQADENATAVVGDFKVRGRSQLETLMQRFLDQIDHFEVKSWHIDNGNVHVNFVASVNGRTIEAQVIIHVSNGRIKSIELRVRNQDVQKHLRNMLS", "protease stability score": 1.05}
{"Sequence Data": "DDHKLAEDIIQEFHEAMERGDPDQIQKLADKDVTINYGDKRIRGRETATRFWREVMDRIDHVEVTIRELRVKGDKIQFVVLINQNHNGQTTNRHVEASVEVHGDKYRNKSFQFQ", "protease stability score": 0.35}

Moving on to another sequence below.
IN: Please list protease stability score recorded for the sequence `DEENIRVYQEMLEAIKEGDQKRVQELVDPNVEAVYGESQVHGREDIARDLRRVREESRRDVTTYKVTDTNGQITINVDFFQTHDGRPTRKEASVHVQITNGKVKFVEMRDDQ`
OUT: 0.248
